Provide the recorded pIC50 for the entries that follow.
TARGET OR SYSTEM: KRAS (G12D)::SOS1 (Homo sapiens (Human), UniProt P01116, G12D)
Sequence (P01116 other isoform, or with tags, fused parts or gaps G12D): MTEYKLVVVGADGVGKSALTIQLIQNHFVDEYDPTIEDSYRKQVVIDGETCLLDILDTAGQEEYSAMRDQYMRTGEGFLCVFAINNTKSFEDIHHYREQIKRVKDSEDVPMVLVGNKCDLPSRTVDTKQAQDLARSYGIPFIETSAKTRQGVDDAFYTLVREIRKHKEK
EXPERIMENTAL PROTOCOL: KRAS::SOS1 AlphaScreen binding assay, KRAS G12D
Numbers only, as −log10 of the molar value.

Hi there! I need pIC50 for each item below, if you can.
1. C[C@H](Oc1cc(-c2ccn(C3COC3)n2)nc(-c2noc3c2CCC[C@@]32CCCc3sc(N)c(C#N)c32)n1)[C@@H]1CCCN1C
2. C[C@H](Oc1cc(-c2cn(C3CCOCC3)nn2)nc(-c2noc3c2CCC[C@@]32CCCc3sc(N)c(C#N)c32)n1)[C@@H]1CCCN1C
3. C[C@H](Oc1cc(-c2cnsc2)nc(-c2onc3c2CCC[C@@]32CCCc3sc(N)c(C#N)c32)n1)[C@@H]1CCCN1C

8.52
7.89
8.52

---

EXPERIMENTAL PROTOCOL: Solubility measurement (DMSO solution method), McIlvaine buffer pH 4.5 or 6.8
Type: physicochemical
SETTINGS: aqueous buffer, kinetic from dmso stock; McIlvaine buffer pH 6.8; DMSO stock diluted to 250 μM; 24 h shaking at ambient temperature; read-out: solubility pH 6.8
So I've got a bunch of compounds here, and I need their solubility at 24 h values.
Numbers only, in µg/mL.

A selection of reference data follows.
1. C[C@H](Oc1cc(-c2ccn(C3COC3)n2)nc(-c2onc3c2CCC[C@@]32CCCc3sc(N)c(C#N)c32)n1)[C@@H]1CCCN1C: 92
2. COc1c(O[C@@H](C)[C@@H]2CCCN2C)nc(-c2noc3c2CCC[C@@]32CCCc3sc(N)c(C#N)c32)nc1-n1ccc(C(N)=O)n1: 125

Turning now to a further compound:
// solubility at 24 h value for `C[C@H](Oc1cc(C2CCOCC2)nc(-c2noc3c2CCC[C@@]32CCCc3sc(N)c(C#N)c32)n1)[C@@H]1CCCN1C` : 104

---

Tested on: AsPC-1 cells
EXPERIMENTAL PROTOCOL: AsPC-1 CTG proliferation assay (120 h) (pancreatic cancer, G12D)
Assay type: cell-based
SETTINGS: Homo sapiens, ASPC1
Method: AsPC-1 CTG Proliferation Assay (120 h) (Pancreatic Cancer, G12D) The CTG assay is designed to measure quantitatively the proliferation of AsPC-1 cells (ATCC […]), using the CellTiter Glow Assay Kit (Promega G7571). […] Plates are incubated for 120 h, and cell viability is measured using CellTiter-Glo luminescent cell viability reagent (Promega product code G7570). […] IC50 values are determined from viability measurements by non-linear regression using a four-parameter model.
So basically: is IC50 under 2 µM? Then y. Not under? Then n.

1. C[C@H](Oc1cc(N2CC[C@@H](O)C2)nc(-c2noc3c2CCC[C@@]32CCCc3sc(N)c(C#N)c32)n1)[C@@H]1CCCN1C [II-66]: n
2. C[C@H](Oc1cc(-c2cn[nH]c2)nc(-c2noc3c2CCC[C@@]32CCCc3sc(N)c(C#N)c32)n1)[C@@H]1CCCN1C [II-87]: n
3. C[C@H](Oc1cc(C2=CCNCC2)nc(-c2noc3c2CCC[C@@]32CCCc3sc(N)c(C#N)c32)n1)[C@@H]1CCCN1C [II-164]: y
4. C[C@H](Oc1cc(N2CC[C@@H](N(C)C)C2)nc(-c2noc3c2CCC[C@@]32CCCc3sc(N)c(C#N)c32)n1)[C@@H]1CCCN1C [II-47]: y
5. CO[C@H]1CCN(C)[C@@H]1[C@H](C)Oc1cc(-n2ccc(CC(=O)NC(C)C)n2)nc(-c2noc3c2CCC[C@@]32CCCc3sc(N)c(C#N)c32)n1 [II-183]: y
6. COCCNC(=O)c1ccn(-c2cc(O[C@@H](C)[C@@H]3[C@@H](OC)CCN3C)nc(-c3onc4c3CCC[C@@]43CCCc4sc(N)c(C#N)c43)n2)n1 [I-55]: y
7. C[C@H](Oc1cc(-c2cc[nH]n2)nc(-c2noc3c2CCC[C@@]32CCCc3sc(N)c(C#N)c32)n1)[C@@H]1CCCN1C [II-71]: y
8. CO[C@H]1CCN(C)[C@@H]1[C@H](C)Oc1cc(N2CCNC3(CC3)C2)nc(-c2noc3c2CCC[C@@]32CCCc3sc(N)c(C#N)c32)n1 [II-184]: y

Criterion: IC50 strictly below 2 µM. Is it met by C[C@H](Oc1cc(-n2ccc(C(=O)N[C@@H]3CCOC3)n2)nc(-c2noc3c2CCC[C@@]32CCCc3sc(N)c(C#N)c32)n1)[C@@H]1CCCN1C [II-192] ?
y

Quick check: does C[C@H](Oc1cc(N2CCNC3(CCCC3)C2)nc(-c2noc3c2CCC[C@@]32CCCc3sc(N)c(C#N)c32)n1)[C@@H]1CCCN1C [II-41] have IC50 under 2 µM?
y

Please let me know if C[C@H](Oc1cc(N2CCCC2=O)nc(-c2noc3c2CCC[C@@]32CCCc3sc(N)c(C#N)c32)n1)[C@@H]1CCCN1C [II-73] shows IC50 below 2 µM.
y

Answer whether the compound C[C@H](Oc1cc(-c2ccncc2)nc(-c2noc3c2CCC[C@@]32CCCc3sc(N)c(C#N)c32)n1)[C@@H]1CCCN1C [II-78] has IC50 strictly less than 2 µM
n
